tested on: UACC-62 melanoma; test: NCI-60 one-dose screen, 48 h (100 = growth as untreated, 0 = no growth, -100 = all killed); conditions: 10 µM unless noted
About 83,000 compounds went through this panel and 20% of them were active in at least one assay; those are over-represented in the sample as a whole.
QUANTITY MEASURED: growth (%)
Just the number please, in %, no unit attached.

The molecule listed as O=C(Nc1ccc(F)cc1F)c1cc(Cl)ccc1O has a reported growth of 7.39

Measured growth, O=C(N=Nc1c(O)[nH]c2ccccc12)c1oc2ccccc2c1CN1CCN(c2ccccc2)CC1 : 4.02

Entry Nc1ccc(C2c3ccccc3Oc3ccccc32)cc1 , growth reported as 94.8

Please fill in: growth reported for CCOC(=O)C(CC(=O)O)=C(C(=O)OCC)C(=O)OCC = 113

Per the record, COc1ccc(C(O)(CCC(C)C)C(CN2CCOCC2)c2ccc(Cl)cc2)cc1 (stereo not drawn) has growth of 60.9

Summary for this molecule, Brc1ccc(Oc2ccc(Nc3ncnc4onc(-c5ccccc5)c34)cc2)cc1 : growth is 88.6

The molecule listed as Cc1nn(-c2nc3ccccc3[nH]2)c2c1C(c1ccc(OCC(N)=O)cc1)CC(=O)N2 (stereo not drawn) has a reported growth of 97.8

// growth value for Cc1ccc2c(n1)C(=O)C(Oc1ccc(Br)cc1)=CC2=O : 95.9

// sample Nc1ccc(-n2c(=O)oc3ccc(Cl)cc3c2=O)c(Cl)c1 , its growth was -34.9

Per the records, this molecule ( CCOc1c(Br)cc(C2C(C(=O)OC)=CN(C)C=C2C(=O)OC)cc1OC ) has growth equal to 71.3

Field growth (entry COc1ccc(OC)c(/C=C/C(=O)c2c(C)nc3ccccc3c2/C=C/c2ccccc2)c1 ) reads 50.1

response.value for O=c1oc2ccc(Br)cc2c(=O)n1-c1ccc(F)cc1F (field: growth) = -0.768

The reported growth of the molecule Cn1c(/C=C(\C#N)c2ccccc2)nc2c(N3CCOCC3)nc(Cl)nc21 was -86.1

growth recorded for this molecule, O=C(NC1CCN(Cc2ccccc2)CC1)c1cc(C(=O)NC2CCN(Cc3ccccc3)CC2)cc(C(=O)NC2CCN(Cc3ccccc3)CC2)c1 , is 84.9

Reported growth for CN(O)c1nc(N(C)O)nc(N2CCOCC2)n1 was 29.1

The molecule listed as O=C(Nc1ccc(Cl)cc1F)c1cc(F)ccc1O has a reported growth of -7.35

Value of measured growth for the entry CCN1CCN(c2cc(C)c3cc(NC(=O)c4ccc(OC)c(OC)c4)ccc3n2)CC1 : 27.3

The molecule identified as O=Cc1c(OCc2cnnn2CC(=O)Nc2ccc(Br)cc2)ccc2ccccc12 registered its growth at 68.4

Sure, the documented growth for NCCCNc1nc2ccccc2c2c(=O)c3cc(F)ccc3sc12 is -76.1

growth reported for this molecule COc1ccc(CCN2CCC(CN(C)Cc3cnn(-c4ccccc4)c3)CC2)cc1 : -14.2

Input Cc1cccc2c(=O)c3c(sc12)c(N1CCNCC1)nc1ccccc13 . Output growth: 89.9

Recorded result, Oc1c(C(Nc2ccccn2)c2cccc(Oc3ccccc3)c2)ccc2cccnc12 (stereo not drawn) , growth: -86.6

Lab book: growth of CCCCCCn1c(=N)n(CC(O)COc2cccc(C)c2)c2ccccc21 (stereo not drawn) noted as -72.4

Reported growth of O=C(NCc1ccco1)C1CN(c2ccc(Cl)cc2)N(c2ccc(Cl)cc2)C1=O (stereo not drawn) : 24.4

So, O=S(=O)(c1ccc(NC(=S)NC23CC4CC(CC(C4)C2)C3)cc1)N1CCCCC1 ? Its growth was 80.8

Measured growth of O=C(Nc1ccc(Br)cc1F)c1cc(Cl)ccc1O : -24.9

Form: molecule = COc1ccc(-c2nc(-c3ccccc3)c(-c3ccccc3)[nH]2)cc1OC1CCCCC1 ; growth = 76.7

growth reading for COc1cccc2c(=O)c3c(sc12)c(NCCCNCCO)nc1ccccc13 : 77.4

Reported growth for Cc1ccc(S(=O)(=O)c2c(COC(=O)c3cccc(C)c3)c(-c3ccccc3)nn2C)cc1 was 88.7

The value of growth measured for the molecule O=c1oc2ccc(Br)cc2c(=O)n1-c1ccc(Cl)cc1F turned out to be -28.5

Lab note: COc1ccccc1C(=O)O/N=C(\N)Cc1cccc2ccccc12 gave growth of 83.3

GET /value?item= CSc1nc2c(c(=O)[nH]1)N=C1c3ccccc3C(=O)C1C(c1ccc(F)cc1)N2 (stereo not drawn) &field=growth returns 43.1

The molecule listed as CNCCNc1nc2ccccc2c2c(=O)c3cccc(C)c3sc12 has a reported growth of 42

// recorded growth for CCOC(=O)c1cc2c(n1Cc1ccccc1OC)-c1oncc1CCC2 : 26.5

For this molecule ( CC(=O)Nc1nc2c(s1)CCc1c-2cn(S(=O)(=O)c2ccccc2)c1-c1ccccc1 ), measured growth is 58

Field growth (entry NC(=O)CSc1nc(-c2ccc(F)cc2)cc(-c2ccco2)n1 ) reads 95.4

// growth value for Cn1nc(C(F)(F)F)c(-c2ccc(Cl)c(C(F)(F)F)c2)c1-c1ccc(OCc2ccc(Cl)cc2)cc1O : 19.7

growth recorded for this molecule, CCc1ccc(CNCC(O)c2ccccc2)cc1 (stereo not drawn) , is 84.5

growth in this record for COc1ccc(-n2c(C(O)c3ccccc3)nn(CN3CCOCC3)c2=S)cc1 (stereo not drawn) : 95.8

Reported growth for COc1ccc(C2Nc3ncnc(N)c3N=C3c4ccccc4C(=O)C32)cc1 (stereo not drawn) was 117

Per the records, this molecule ( O=C1c2cc(I)ccc2Oc2cc([N+](=O)[O-])ccc2N1c1ccc(Cl)cc1F ) has growth equal to 76.8

For COc1cc(CNC(=O)c2ccsc2Nc2ccnc(C(F)(F)F)c2)ccc1O the molecule record lists growth as 102

Value of growth reported for the molecule CNC(=O)c1cc(Oc2ccc(CC(=O)Nc3cc(C(C)(C)C)cn3C)cc2)ccn1 is 62.9
